Tested on: MCF7
Experiment: NCI tumour cell line growth inhibition, 48 h
Activity calls are given as the source filed them. Rule as the data show it: active = GI50 up to about 1.1 µM and inactive = higher.
Recorded GI50, one value per entry.

{"compound": "FC(F)(F)c1cccc(-c2nc3ccccc3c3c2[C@@]2(N4CCCC4)CCCC[C@@H]32)c1", "result": "20 µM (inactive)"}
{"compound": "CCN(C(=O)N[C@H](C(=O)N[C@@H](CSC)C(=O)N[C@@H](C)C(=O)OC)C(C)C)c1ccccc1", "result": "16.1 µM (inactive)"}
{"compound": "COC(=O)c1ccc(NCC2=CC(=O)c3ccccc3C2=O)cc1", "result": "18.4 µM (inactive)"}
{"compound": "N/C(=N\\n1c(=S)[nH]c2ccccc2c1=O)Nn1c(=S)[nH]c2ccccc2c1=O", "result": "33.7 µM (inactive)"}
{"compound": "NCCSC(c1ccccc1)c1ccccc1", "result": "19.3 µM (inactive)"}
{"compound": "COc1cccc2c1Cc1cc(-c3ccccc3)[n+](C)n1-2", "result": "2.3 µM (inactive)"}

Query: Would you kindly share the measured GI50 for C[C@H](CCC(=O)O)[C@H]1CC[C@H]2[C@@H]3C(=O)C[C@@H]4C[C@H](O)CC[C@]4(C)[C@H]3C[C@H](O)[C@]12C ?
Reply: > 100 µM (inactive)

Query: Entry COC(=O)C(=O)C(C(=O)C(=O)Nc1ccc(Cl)cc1Cl)c1nc2ccc(Cl)cc2nc1O (stereo not drawn) has what GI50?
Reply: > 100 µM (inactive)

Query: Report GI50 for Cc1cc2c(cc1C)C(=O)/C(=N/Nc1ccc(F)cc1)CCO2 please.
Reply: > 100 µM (inactive)

Query: Form field: reported GI50 of O=[N+]([O-])c1ccc2c3ccccc3[s+]([O-])c2c1 (stereo not drawn)
Reply: 74 µM (inactive)

Query: What value of GI50 has been recorded for this entry: Nc1ccc2c(c1)NCCN2
Reply: 4.53 µM (inactive)

Query: // GI50 lookup, key: O=C1CCc2cc3c(cc21)CC1(Cc2ccccc2C1)C3
Reply: 9.29 µM (inactive)

Query: I'd like to know its GI50. The compound in question is Cc1ccc(C)c2c1C/C(=C\c1ccccc1C(=O)O)C2=O
Reply: > 100 µM (inactive)

###

Test system: MDA-MB-231
Assay: NCI tumour cell line growth inhibition, 48 h
Active and inactive are the calls of the source. Cut-off read from the data, not from the text of the source: active = GI50 up to about 1.1 µM and inactive = higher.
measured.metric: GI50

Previously resolved entries follow.
{"molecule": "COC(=O)C1(N2CCOCC2)CCC([C@@H](c2ccccc2)C(C)[N+](=O)[O-])C1 (some centres undefined)", "GI50": "> 100 µM (inactive)"}
{"molecule": "CC(=O)OC1c2ccccc2CC2(OC(C)=O)c3ccccc3C12 (centres undefined)", "GI50": "> 100 µM (inactive)"}
{"molecule": "CC1(C)C2CC(O)C1(C)CC2=O (centres undefined)", "GI50": "> 100 µM (inactive)"}
{"molecule": "CC(C)(C)OCC1NC(=O)[C@@H]2Cc3c([nH]c4ccccc34)C(c3ccccc3)N2C1=O (some centres undefined)", "GI50": "> 50 µM (inactive)"}
{"molecule": "CCc1c(C)c(C#N)c(=S)n(C2OC(CO)C(O)C(O)C2O)c1C (centres undefined)", "GI50": "> 100 µM (inactive)"}
{"molecule": "Cc1nc2c(nc1C)C(=O)c1ccccc1C2=O", "GI50": "7.55 µM (inactive)"}
{"molecule": "CC1(C)[C@@H](Cn2ccc(=O)[nH]c2=O)CC[C@@]1(C)CO", "GI50": "> 100 µM (inactive)"}
{"molecule": "CC1=C(C)C(=O)O[C@@H]([C@](C)(O)[C@]2(O)CC[C@@]3(O)[C@@H]4C[C@H](O)[C@]5(O)[C@@H](O)C=CC(=O)[C@]5(C)[C@H]4CC[C@]23C)C1", "GI50": "> 100 µM (inactive)"}

Attention now turns to another entry.
Query: Quick check: GI50 of COc1ccc(C2SC(C)C(=O)N2c2nc(-c3nc(-c4ccc(Cl)cc4)cs3)cs2)cc1 (centres undefined) ?
Reply: > 100 µM (inactive)
